Would you mind telling me the reported log10 IC50 of each entry?
Target: DGKα (hDGKalpha(1-735)-N-His) (Homo sapiens, UniProt P23743)
Sequence (P23743 whole entry): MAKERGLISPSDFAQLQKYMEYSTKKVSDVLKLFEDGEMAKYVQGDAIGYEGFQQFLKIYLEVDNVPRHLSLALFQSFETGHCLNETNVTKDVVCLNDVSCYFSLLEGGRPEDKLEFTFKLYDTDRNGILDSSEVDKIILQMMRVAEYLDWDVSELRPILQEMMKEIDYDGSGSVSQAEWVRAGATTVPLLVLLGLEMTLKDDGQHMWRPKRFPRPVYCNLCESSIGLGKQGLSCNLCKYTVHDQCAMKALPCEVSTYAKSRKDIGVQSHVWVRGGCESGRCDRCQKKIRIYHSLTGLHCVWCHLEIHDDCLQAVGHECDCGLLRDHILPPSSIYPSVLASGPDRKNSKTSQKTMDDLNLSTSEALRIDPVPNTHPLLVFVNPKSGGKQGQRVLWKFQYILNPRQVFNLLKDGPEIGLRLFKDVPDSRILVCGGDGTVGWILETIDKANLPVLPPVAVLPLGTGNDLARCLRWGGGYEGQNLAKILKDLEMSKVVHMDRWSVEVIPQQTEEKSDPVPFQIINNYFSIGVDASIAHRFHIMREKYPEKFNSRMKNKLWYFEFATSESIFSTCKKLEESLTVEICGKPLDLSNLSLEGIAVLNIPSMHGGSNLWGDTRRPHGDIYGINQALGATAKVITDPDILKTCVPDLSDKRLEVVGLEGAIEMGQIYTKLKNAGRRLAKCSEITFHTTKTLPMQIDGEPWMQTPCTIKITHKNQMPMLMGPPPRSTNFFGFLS
A difference of one corresponds to tenfold IC50; all values are log10 with IC50 in µM.

The examples below pair each entry with its known result.
Compound	log10 IC50
CC(C)(C)c1nnc(-c2ccc3c(c2)N(Cc2ccc(-c4nc(C(F)(F)F)co4)cc2)C(=O)[C@@H](N)CS3(=O)=O)o1	0.92
CC(C)(C#N)c1nnc(-c2ccc3c(c2)N(Cc2ccc(-c4ccc(C(F)(F)F)cn4)cc2)C(=O)[C@@H](N)CS3(=O)=O)o1	0.86
CC(C)(C)c1nnc(-c2ccc3c(c2)N(Cc2ccc(-c4nnc(C(F)(F)F)o4)cc2)C(=O)[C@@H](N)CS3(=O)=O)o1	0.99
COC(=O)N1CC(c2nnc(-c3ccc4c(c3)N(Cc3ccc(-c5ccc(C(F)(F)F)cc5)nc3)C(=O)[C@@H](N)CS4(=O)=O)o2)CC(F)(F)C1 (some centres unmarked)	0.52
N[C@H]1CS(=O)(=O)c2cc(F)c(-c3nnc(N4CCC(F)(F)CC4)o3)cc2N(Cc2ccc(-c3noc(C(F)(F)F)n3)cc2)C1=O	-0.20
N[C@H]1CS(=O)(=O)c2cc(F)c(-c3noc(C4(N)COC4)n3)cc2N(Cc2ccc(-c3ccc(C(F)(F)F)cn3)cc2)C1=O	0.71

Field: next compound
# log10 IC50 of N#CC1(c2nnc(-c3ccc4c(c3)N(Cc3ccc(-c5ccc(OC(F)(F)F)cn5)cc3)C(=O)[C@@H](N)CS4(=O)=O)o2)CCOCC1 = 0.31

----------
Target: DGKζ (hDGKzeta(1-928)-N-His) (Homo sapiens)
Sequence (Q13574 whole entry): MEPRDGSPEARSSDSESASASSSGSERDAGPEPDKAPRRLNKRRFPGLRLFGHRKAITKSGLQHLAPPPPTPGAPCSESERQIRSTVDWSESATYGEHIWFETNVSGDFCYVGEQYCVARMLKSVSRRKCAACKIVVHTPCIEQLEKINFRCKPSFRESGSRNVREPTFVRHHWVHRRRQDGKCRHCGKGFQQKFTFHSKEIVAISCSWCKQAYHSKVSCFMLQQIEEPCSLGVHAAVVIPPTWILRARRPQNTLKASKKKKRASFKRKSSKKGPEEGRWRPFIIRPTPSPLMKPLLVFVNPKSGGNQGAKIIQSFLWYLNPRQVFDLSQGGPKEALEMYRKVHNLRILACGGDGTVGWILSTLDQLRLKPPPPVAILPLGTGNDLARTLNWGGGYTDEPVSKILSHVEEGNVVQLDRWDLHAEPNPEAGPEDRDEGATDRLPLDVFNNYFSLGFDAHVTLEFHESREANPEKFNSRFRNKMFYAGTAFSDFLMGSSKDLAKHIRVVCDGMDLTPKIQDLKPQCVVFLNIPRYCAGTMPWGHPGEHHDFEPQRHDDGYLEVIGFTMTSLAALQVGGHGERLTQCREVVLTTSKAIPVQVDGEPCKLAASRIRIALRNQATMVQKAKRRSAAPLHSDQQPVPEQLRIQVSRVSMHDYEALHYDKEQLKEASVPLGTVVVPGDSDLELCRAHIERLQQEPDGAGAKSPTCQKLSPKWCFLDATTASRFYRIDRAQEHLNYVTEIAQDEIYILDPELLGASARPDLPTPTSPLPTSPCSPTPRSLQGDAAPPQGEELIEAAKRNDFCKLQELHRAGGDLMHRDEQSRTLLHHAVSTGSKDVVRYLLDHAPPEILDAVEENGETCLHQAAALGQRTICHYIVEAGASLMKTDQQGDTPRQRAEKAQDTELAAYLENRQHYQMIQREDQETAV
Reported endpoint: pIC50
One number for each entry, as −log10 of the molar value.

Compound	pIC50
Cc1cc(C)n(-c2ccc(CN3C(=O)[C@@H](N)CS(=O)(=O)c4ccc(-c5nnc(C(C)(C)C)o5)cc43)cc2)n1	5.96

Hi team, please reply with pIC50 for each item in this list.
1. Cn1nc(C(F)(F)F)cc1-c1ccc(CN2C(=O)[C@@H](N)CS(=O)(=O)c3ccc(-c4nnc(C(C)(C)C#N)o4)cc32)cc1
2. CC(C)(C#N)c1nnc(-c2ccc3c(c2)N(Cc2ccc(-c4ccc(OCC(F)(F)F)cn4)cc2)C(=O)[C@@H](N)CS3(=O)=O)o1
3. COc1ccc(-c2ccc(CN3C(=O)[C@@H](N)CS(=O)(=O)c4ccc(-c5nnc(C6(F)CCCN(C)C6)o5)cc43)cc2)cc1 (stereo partly shown)
4. N[C@H]1CS(=O)(=O)c2ccc(-c3nnc(N4CCC(F)(F)CC4)o3)cc2N(Cc2ccc(-n3ccc(C(F)(F)F)n3)cc2)C1=O

6.07
6.10
6.07
5.96

Hi team, please reply with pIC50 for each item in this list.
1. CC(C)(C#N)c1nnc(-c2ccc3c(c2)N(Cc2ccc(-c4ccc(C(F)(F)F)cn4)cc2)C(=O)[C@@H](N)CS3(=O)=O)o1
2. N[C@H]1CS(=O)(=O)c2ccc(-c3nnc(C4(CO)CCCO4)o3)cc2N(Cc2ccc(-c3noc(C(F)(F)F)n3)cc2)C1=O (stereo partly shown)

[6.07, 5.86]

----------
Here we list molecules with their recorded IC50 when tested on DGK ζ kinase (Homo sapiens, UniProt Q13574).
Sequence (Q13574 whole entry): as above
Just so you know, I need the unit written after the number.

Molecule	IC50
CN1CCCC(F)(c2nnc(-c3ccc4c(c3)N(Cc3ccc(-c5noc(C(F)(F)F)n5)cc3)C(=O)[C@@H](N)CS4(=O)=O)o2)C1 (stereo partly shown) [Example 49]	365 nM

Hi team, please reply with IC50 for each item in this list.
1. C[C@@](N)(c1nnc(-c2ccc3c(c2)N(Cc2ccc(-c4noc(C(F)(F)F)n4)cc2)C(=O)[C@@H](N)CS3(=O)=O)o1)C(F)(F)F [Example 52]
2. CC(C)(C#N)c1nnc(-c2ccc3c(c2)N(Cc2ccc(-c4ccc(C(F)(F)F)cn4)cc2)C(=O)[C@@H](N)CS3(=O)=O)o1 [Example 47]
3. CC(O)(c1nnc(-c2ccc3c(c2)N(Cc2ccc(-c4noc(C(F)(F)F)n4)cc2)C(=O)[C@@H](N)CS3(=O)=O)o1)C(F)(F)F (stereo partly shown) [Example 96]

101 nM
71.3 nM
107 nM

----------
Here we list compounds with their recorded pIC50 when tested on DGKα (hDGKalpha(1-735)-N-His) (Homo sapiens).
One number for each entry, as −log10 of the molar value.

The examples below pair each entry with its known result.
Compound	pIC50
COC(=O)N1CC2CC(c3nnc(-c4ccc5c(c4)N(Cc4ccc(-c6ccc(C(F)(F)F)cc6)cc4)C(=O)[C@@H](N)CS5(=O)=O)o3)(C2)C1	5.44
CN1CCCC(F)(c2nnc(-c3ccc4c(c3)N(Cc3ccc(-c5ccc(C(F)(F)F)cn5)cc3)C(=O)[C@@H](N)CS4(=O)=O)o2)C1 (some centres unmarked)	5.20

Field: next compound
# pIC50 of COc1ccc(-c2ccc(CN3C(=O)[C@@H](N)CS(=O)(=O)c4ccc(-c5nnc(C6(F)CCCN(C)C6)o5)cc43)cc2)cc1 (some centres unmarked) = 5.47

----------
Target: DGKα (hDGKalpha(1-735)-N-His) (Homo sapiens, UniProt P23743)
pIC50: −log10 of the molar value.
Class Criterion met: pIC50 at least 5. Class Criterion not met: pIC50 below 5.

Use the examples below as a reference point.
Compound	Class label
CC(O)(c1nnc(-c2ccc3c(c2)N(Cc2ccc(-c4noc(C(F)(F)F)n4)cc2)C(=O)[C@@H](N)CS3(=O)=O)o1)C(F)(F)F (stereo partly shown) [Example 96]	Criterion not met
C[C@@](N)(c1nnc(-c2ccc3c(c2)N(Cc2ccc(-n4ccc(C(F)(F)F)n4)cc2)C(=O)[C@@H](N)CS3(=O)=O)o1)C(F)(F)F [Example 157]	Criterion not met
CCOC(F)(c1nnc(-c2ccc3c(c2)N(Cc2ccc(-c4noc(C(F)(F)F)n4)cc2)C(=O)[C@@H](N)CS3(=O)=O)o1)C(F)(F)F (stereo partly shown) [Example 64]	Criterion met
COC(F)(c1nnc(-c2ccc3c(c2)N(Cc2ccc(-c4nnc(C5CC5)o4)cc2)C(=O)[C@@H](N)CS3(=O)=O)o1)C(F)(F)F (stereo partly shown) [Example 65]	Criterion met
CC(C)(C)c1nnc(-c2ccc(CN3C(=O)[C@@H](N)CS(=O)(=O)c4ccc(-c5nnc(C(C)(C)C)o5)cc43)cc2)o1 [Example 19]	Criterion not met

Entry COc1ccc(-c2ccc(CN3C(=O)[C@@H](N)CS(=O)(=O)c4ccc(-c5nnc(N6CCOC(F)(F)C6)o5)cc43)cc2)cc1 [Example 79] : is its pIC50 no less than 5?
Criterion not met

Entry COc1ccc(-c2ccc(CN3C(=O)[C@@H](N)CS(=O)(=O)c4ccc(-c5nnc(C6(N)CCCCC6)o5)cc43)cc2)cc1 [Example 43] : is its pIC50 no less than 5?
Criterion not met

----------
Here we list compounds with their recorded IC50 when tested on DGKα (hDGKalpha(1-735)-N-His) (Homo sapiens).

Structure	IC50
Cc1nc(-c2ccc(CN3C(=O)[C@@H](N)CS(=O)(=O)c4ccc(-c5nnc(C(C)(C)C#N)o5)cc43)cc2)ccc1C(F)(F)F	> 60 µM

Hi team, please reply with IC50 for each item in this list.
1. CC(C)(C#N)c1nnc(-c2ccc3c(c2)N(Cc2ccc(-c4ccnc(C(F)(F)F)c4)cc2)C(=O)[C@@H](N)CS3(=O)=O)o1
2. COC(=O)N1CC2CC(c3nnc(-c4ccc5c(c4)N(Cc4ccc(-c6noc(C(F)(F)F)n6)cc4)C(=O)[C@@H](N)CS5(=O)=O)o3)(C2)C1
3. Cc1nc(F)ccc1-c1nc(-c2ccc3c(c2)N(Cc2ccc(-c4noc(C5CC5)n4)cc2)C(=O)[C@@H](N)CS3(=O)=O)no1

1. > 62.5 µM
2. > 60 µM
3. > 62.5 µM

----------
Here we list compounds with their recorded IC50 when tested on DGKα (hDGKalpha(1-735)-N-His) (Homo sapiens, UniProt P23743).
Answers are plain numbers, in µM.

The examples below pair each entry with its known result.
Compound	Reported endpoint	Test result
CC(C)(C#N)c1nnc(-c2ccc3c(c2)N(Cc2ccc(-c4noc(C(F)(F)F)n4)cc2)C(=O)[C@@H](N)CS3(=O)=O)o1	IC50	9.77
N[C@H]1CS(=O)(=O)c2cc(F)c(-c3noc(N4CCOC5(CC5)C4)n3)cc2N(Cc2ccc(-c3noc(C(F)(F)F)n3)nc2)C1=O	IC50	36.9
CC(C)(C#N)c1nnc(-c2ccc3c(c2)N(Cc2ccc(-c4ccc(OC(F)(F)C(F)(F)F)cn4)cc2)C(=O)[C@@H](N)CS3(=O)=O)o1	IC50	1.68
N[C@H]1CS(=O)(=O)c2ccc(-c3nnc(N4CCC(F)(F)CC4)o3)cc2N(Cc2ccc(-c3nnc(C(F)(F)F)o3)cc2)C1=O	IC50	24.7
CN1CCCC(F)(c2nnc(-c3ccc4c(c3)N(Cc3ccc(-c5noc(C(F)(F)F)n5)cc3)C(=O)[C@@H](N)CS4(=O)=O)o2)C1 (stereo partly drawn)	IC50	17.8
N[C@H]1CS(=O)(=O)c2cc(F)c(-c3nnc(N4CCOC5(CC5)C4)o3)cc2N(Cc2ccc(-c3noc(C(F)(F)F)n3)cc2)C1=O	IC50	3.41

Hi team, please reply with IC50 for each item in this list.
1. N[C@H]1CS(=O)(=O)c2ccc(-c3nnc(C4(C5CC5)CCCO4)o3)cc2N(Cc2ccc(-c3noc(C(F)(F)F)n3)cc2)C1=O (stereo partly drawn)
2. C[C@@](N)(c1nnc(-c2ccc3c(c2)N(Cc2ccc(-c4ccc(C(F)(F)F)cn4)cc2)C(=O)[C@@H](N)CS3(=O)=O)o1)C(F)(F)F

1. 2.6
2. 23.6

Reference source for all entries: patent US20260138976A1
